- Protocol Notes: in vivo pharmacokinetic study in mice by ip administration
- Parameters: species or system C57Bl/6 mice
- Test Settings: C57Bl/6; mouse, 10 mg/kg ip, Brain; read-out: MRTInf_obs
Measurement Label: MRT inf (min)
The figure you give is taken to be in min; do not add the unit.

Record request: MRT inf value, item `CN(c1ccc2ncc(-c3ccc4cn[nH]c4c3)n2n1)C1CCOCC1`
18.8

###

Below is a list of entries, each paired with its recorded IC50 value.
- Tested On: AAK1 (Homo sapiens)
- Sequence (Q2M2I8 whole entry): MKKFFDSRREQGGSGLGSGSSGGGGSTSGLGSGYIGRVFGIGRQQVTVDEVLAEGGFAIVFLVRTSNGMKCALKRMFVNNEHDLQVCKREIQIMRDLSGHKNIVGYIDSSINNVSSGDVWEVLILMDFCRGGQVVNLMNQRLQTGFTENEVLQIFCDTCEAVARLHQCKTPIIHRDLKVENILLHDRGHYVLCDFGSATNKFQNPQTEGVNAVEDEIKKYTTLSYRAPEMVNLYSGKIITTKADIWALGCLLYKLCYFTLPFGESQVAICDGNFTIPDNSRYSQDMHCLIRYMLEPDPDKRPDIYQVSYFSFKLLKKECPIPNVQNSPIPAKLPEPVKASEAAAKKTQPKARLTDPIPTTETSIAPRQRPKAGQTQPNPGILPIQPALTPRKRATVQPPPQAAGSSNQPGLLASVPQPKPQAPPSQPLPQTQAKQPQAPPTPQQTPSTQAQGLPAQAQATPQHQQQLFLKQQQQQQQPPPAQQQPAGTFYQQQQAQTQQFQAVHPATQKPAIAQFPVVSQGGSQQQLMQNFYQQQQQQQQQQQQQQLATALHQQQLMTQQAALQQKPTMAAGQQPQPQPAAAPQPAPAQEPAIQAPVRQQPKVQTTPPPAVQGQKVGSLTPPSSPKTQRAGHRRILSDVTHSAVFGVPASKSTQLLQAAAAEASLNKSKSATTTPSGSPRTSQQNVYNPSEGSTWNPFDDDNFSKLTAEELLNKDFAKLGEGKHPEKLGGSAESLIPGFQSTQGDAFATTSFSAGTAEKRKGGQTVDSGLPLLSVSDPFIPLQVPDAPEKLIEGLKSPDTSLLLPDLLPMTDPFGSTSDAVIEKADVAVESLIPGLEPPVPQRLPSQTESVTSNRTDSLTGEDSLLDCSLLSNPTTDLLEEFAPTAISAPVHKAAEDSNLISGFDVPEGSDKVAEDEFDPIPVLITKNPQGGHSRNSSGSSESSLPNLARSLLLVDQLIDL
The answer is to be given in µM; state only the numeric part.

For the compound `CCCN(c1ccc2ncc(-c3ccc4cn[nH]c4c3)n2n1)C1CCOCC1` , what IC50 is on record?
13

New cases:
Give its IC50 value. Item: `CN(c1ccc2ncc(-c3ccc4cn[nH]c4c3)n2n1)C1CCOCC1`
0.12
